target: GPR35 (Homo sapiens, UniProt Q9HC97); assay: Tango β-arrestin translocation gene reporter assay in U2OS-GPR35-bla cells; type: cell-based; design: host or cells: U2OS (Tango U2OS-GPR35-bla); conditions: β-arrestin translocation, tested up to 1mM, mean ± S.D., n = 4
Sequence (Q9HC97 whole entry, species assumed): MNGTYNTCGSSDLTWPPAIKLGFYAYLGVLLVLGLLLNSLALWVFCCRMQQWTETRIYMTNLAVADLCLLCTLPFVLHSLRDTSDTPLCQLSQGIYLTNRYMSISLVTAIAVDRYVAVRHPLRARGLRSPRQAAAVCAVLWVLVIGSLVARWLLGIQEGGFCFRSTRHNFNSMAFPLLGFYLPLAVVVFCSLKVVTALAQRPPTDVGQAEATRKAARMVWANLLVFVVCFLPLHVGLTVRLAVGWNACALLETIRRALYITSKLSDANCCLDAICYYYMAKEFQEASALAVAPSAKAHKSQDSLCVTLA
assay_endpoint: Potency EC50, Tango

For orientation, consider the following solved cases.
INSERT INTO measurements (compound, study_target, observed_measurement) VALUES
  ('COc1ccc(C=CC(=O)O)cc1OC [3,4-Dimethoxycinnamic acid, 3,4-dimethoxycinnamic acid]', 'GPR35 (Homo sapiens, UniProt Q9HC97)', 'inactive'),
  ('COc1cc(C(=O)O)cc(OC)c1O [Syringic acid, syringic acid]', 'GPR35 (Homo sapiens, UniProt Q9HC97)', 'weak'),
  ('Oc1ccccc1O [Catechol, catechol]', 'GPR35 (Homo sapiens, UniProt Q9HC97)', 'inactive'),
  ('O=C1c2c(O)cc(O)cc2O[C@H](c2ccc(O)c(O)c2)[C@H]1O [(+)-Taxifolin, (+)-taxifolin]', 'GPR35 (Homo sapiens, UniProt Q9HC97)', 'weak'),
  ('CCCOC(=O)c1cc(O)c(O)c(O)c1 [Propyl gallate, propyl gallate]', 'GPR35 (Homo sapiens, UniProt Q9HC97)', 'weak');

So, Oc1cc(O)c2c(c1)O[C@@H](c1ccc(O)c(O)c1)[C@H](O)C2 [(−)-Catechin, (−)-catechin] ? Its Potency EC50, Tango was inactive

According to the records, this compound Oc1ccc(C2CNCCc3c2cc(O)c(O)c3Cl)cc1 (stereo not shown) [Fenoldopam, fenoldopam, reference compound] displays Potency EC50, Tango of inactive

* * *

target: GPR35 (Homo sapiens, UniProt Q9HC97); assay: DMR agonist assay in native HT-29 cells; type: cell-based; parameters: label-free DMR assays in both native HT-29 and engineered U2OS-GPR35-bla cells; host or cells: HT-29; details: mean ± S.D., n = 4, read-out: Potency EC50, DMR
Sequence (Q9HC97 whole entry): as the sequence (Q9HC97 whole entry, species assumed) above
Record form. Attribute: pEC50. Fill in for each entry.
Lab note: report pEC50 as minus log10 of the concentration in molar units, number only.

Entry under test: NC(CO)C(=O)NNCc1ccc(O)c(O)c1O (stereo not drawn) [Benserazide] . Its pEC50 was 4.96

molecule CCCOC(=O)c1cc(O)c(O)c(O)c1 [Propyl gallate, propyl gallate] , pEC50 observed: 4.69

pEC50 for Oc1ccc(C2CNCCc3c2cc(O)c(O)c3Cl)cc1 (stereo not drawn) [Fenoldopam, fenoldopam, reference compound] is 3.69

Recorded pEC50 (molecule O=C(O)c1cc(O)c(O)c(O)c1 [Gallic acid, gallic acid, reference compound] ): 5.94

Quick note, pEC50 for O=C1c2c(O)cc(O)cc2O[C@H](c2ccc(O)c(O)c2)[C@H]1O [(+)-Taxifolin, (+)-taxifolin] landed at 5.18

Record COc1cccc(O)c1O , field pEC50: 3.83

Entry Oc1cccc(O)c1O ; pEC50 = 5.89

The molecule listed as COc1cc(C(=O)O)cc(OC)c1O shows pEC50 equal to 3.83

Reported pEC50 of Oc1ccccc1O : 3.50

* * *

Target: UniProt Q9HC97
Experiment: Tango β-arrestin translocation gene reporter assay in U2OS-GPR35-bla cells
Assay type: cell-based
Set-up: host or cells: U2OS (Tango U2OS-GPR35-bla)
Settings: normalized to maximal response of zaprinast (100%)
Method: Tango assays were performed in engineered U2OS-GPR35-bla cell line. This cell line permits an endpoint measurement of the activity of agonists specific to the GPR35 activation-induced β-arrestin translocation. Specifically, 10000 U2OS-GPR35-bla cells per well were seeded in 384-well, black-wall, clear bottom assay plates with low fluorescence background (Corning). […] After 2 h incubation the coumarin to fluorescein ratio was measured using Victor 4 plate reader (PerkinElmer, Waltham, MA, USA).
Everything with Efficacy Tango (%zaprinast) lower than 80 %zaprinast is class 0; everything else, including exactly 80 %zaprinast, is class 1.

Q. In plain terms: is recorded Efficacy Tango (%zaprinast) at least 80 %zaprinast for COc1cccc(O)c1O [3-Methoxycatechol, 3-methoxycatechol] ?
A. class 0

Q. Does Oc1cccc(O)c1O [Pyrogallol, pyrogallol] have a reported Efficacy Tango (%zaprinast) of at least 80 %zaprinast?
A. class 1

Q. Does NC(CO)C(=O)NNCc1ccc(O)c(O)c1O (stereo not drawn) [Benserazide] have a reported Efficacy Tango (%zaprinast) of at least 80 %zaprinast?
A. class 0

Q. Could you please find out whether Oc1ccccc1O [Catechol, catechol] has Efficacy Tango (%zaprinast) that meets 80 %zaprinast or exceeds it?
A. class 0

Q. Determine whether this compound has Efficacy Tango (%zaprinast) no lower than 80 %zaprinast: O=C(O)c1cc(O)c(O)c(O)c1 [Gallic acid, gallic acid, reference compound]
A. class 0

Q. Check this compound for Efficacy Tango (%zaprinast) at or above 80 %zaprinast: Oc1ccc(C2CNCCc3c2cc(O)c(O)c3Cl)cc1 (stereo not drawn) [Fenoldopam, fenoldopam, reference compound]
A. class 0

* * *

Please provide measured EC50 for the entries that follow.
Molecular target: UniProt:Q9HC97
Experiment: Tango β-arrestin translocation gene reporter assay in U2OS-GPR35-bla cells
Type: cell-based
Design: host or cells: U2OS (Tango U2OS-GPR35-bla)
Conditions: β-arrestin translocation, tested up to 1mM, mean ± S.D., n = 4, read-out: Potency EC50, Tango
Description: Tango assays were performed in engineered U2OS-GPR35-bla cell line. This cell line permits an endpoint measurement of the activity of agonists specific to the GPR35 activation-induced β-arrestin translocation. Specifically, 10000 U2OS-GPR35-bla cells per well were seeded in 384-well, black-wall, clear bottom assay plates with low fluorescence background (Corning). […] After 2 h incubation the coumarin to fluorescein ratio was measured using Victor 4 plate reader (PerkinElmer, Waltham, MA, USA).
# number only, unit µM dropped from output

Record NC(CO)C(=O)NNCc1ccc(O)c(O)c1O (stereo not shown) [Benserazide] . Reported EC50: 7.5

The compound Oc1cccc(O)c1O [Pyrogallol, pyrogallol] showed EC50 equal to 4.5

Entry COc1cccc(O)c1O [3-Methoxycatechol, 3-methoxycatechol] — recorded EC50 = 80.7

Value of EC50 reported for the compound O=C(O)c1cc(O)c(O)c(O)c1 [Gallic acid, gallic acid, reference compound] is 12.6

* * *

target: GPR35 (Homo sapiens); experiment: DMR agonist assay in native HT-29 cells; format: cell-based; parameters: label-free DMR assays in both native HT-29 and engineered U2OS-GPR35-bla cells; host or cells: HT-29; details: maximal DMR amplitude
Field: Efficacy DMR. Provide a value for each of the compounds that follow.
Use pm as the unit, but write only the number.

Entry COc1cc(C(=O)O)cc(OC)c1O — recorded Efficacy DMR = 151

Looking up Oc1ccc(C2CNCCc3c2cc(O)c(O)c3Cl)cc1 (centres unmarked) [Fenoldopam, fenoldopam, reference compound] , I see its Efficacy DMR listed as 268

get_value(item= NC(CO)C(=O)NNCc1ccc(O)c(O)c1O (centres unmarked) [Benserazide] , readout=Efficacy DMR) returns 296

The recorded Efficacy DMR for Oc1cccc(O)c1O is 210

COc1cccc(O)c1O has a reported Efficacy DMR of 219

Summary for this compound, O=C1c2c(O)cc(O)cc2O[C@H](c2ccc(O)c(O)c2)[C@H]1O [(+)-Taxifolin, (+)-taxifolin] : Efficacy DMR is 170

// recorded Efficacy DMR for CCCOC(=O)c1cc(O)c(O)c(O)c1 [Propyl gallate, propyl gallate] : 210

Form: compound = Oc1ccccc1O ; Efficacy DMR = 207

* * *

molecular target: GPR35 (Homo sapiens); assay: Tango β-arrestin translocation gene reporter assay in U2OS-GPR35-bla cells; assay type: cell-based; design: host or cells: U2OS (Tango U2OS-GPR35-bla); conditions: normalized to maximal response of zaprinast (100%)
Give Efficacy Tango (%zaprinast) for every item shown.

Record summary for CCCOC(=O)c1cc(O)c(O)c(O)c1 [Propyl gallate, propyl gallate] : reported Efficacy Tango (%zaprinast) = >8 %zaprinast

# compound O=C1c2c(O)cc(O)cc2O[C@H](c2ccc(O)c(O)c2)[C@H]1O [(+)-Taxifolin, (+)-taxifolin] ; its Efficacy Tango (%zaprinast) = >8 %zaprinast

response.value for COc1cc(C(=O)O)cc(OC)c1O [Syringic acid, syringic acid] (field: Efficacy Tango (%zaprinast)) = >10 %zaprinast

FYI, the data here is from paper PMC3816702.
